# ASSAYED SYSTEM: T1, hCEACAM5, human CEACAM5 ECD (35-685) (human, UniProt P06731 35-685)
# T1 construct: produced in HEK293; also called human CEACAM5 protein; human CEACAM5 extracellular domain
# T1 sequence: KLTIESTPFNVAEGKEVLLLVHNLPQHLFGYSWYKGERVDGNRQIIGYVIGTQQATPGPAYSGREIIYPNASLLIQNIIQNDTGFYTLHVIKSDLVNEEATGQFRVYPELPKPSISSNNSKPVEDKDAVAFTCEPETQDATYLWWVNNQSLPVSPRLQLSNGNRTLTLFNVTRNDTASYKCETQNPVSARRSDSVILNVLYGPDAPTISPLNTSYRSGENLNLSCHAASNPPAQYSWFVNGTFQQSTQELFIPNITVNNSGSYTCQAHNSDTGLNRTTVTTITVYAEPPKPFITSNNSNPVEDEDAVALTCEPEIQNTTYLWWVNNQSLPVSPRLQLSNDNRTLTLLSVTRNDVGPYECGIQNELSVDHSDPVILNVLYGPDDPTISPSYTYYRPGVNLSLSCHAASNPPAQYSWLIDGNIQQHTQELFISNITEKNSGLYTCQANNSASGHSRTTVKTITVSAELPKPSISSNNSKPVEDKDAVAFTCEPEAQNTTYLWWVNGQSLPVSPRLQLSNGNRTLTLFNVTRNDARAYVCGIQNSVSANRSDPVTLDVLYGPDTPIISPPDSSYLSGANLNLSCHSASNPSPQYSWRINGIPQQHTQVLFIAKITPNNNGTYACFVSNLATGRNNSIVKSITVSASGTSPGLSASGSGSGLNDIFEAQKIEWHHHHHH
# ASSAY SUMMARY: ELISA, chimeric mAb
QUANTITY KIND: pEC50
Remember, pEC50 is on a log scale: it is -log10 of the molar concentration.

Challenge: Supply recorded pEC50 for chMAb4 (antibody, human IgG1, kappa, V domains shown, Chimeric, human IgG1 / Ckappa) VH: EVQLVESGGGLVKPGGSLKLSCAASGFTFSSYDMSWVRQTPEKRLEWVAFISSYGGRTYYADTVKGRFTISRDNAKNTLYLQMSSLKSEDTAMFYCAAHYFGTSGPFAYWGQGTLVTVSA VL: DIQMTQSPASLSASVGETVTITCRASENIYSYFAWYQQKQGKSPQLLVYNAKILAEGVPSRFSGSGSGTQFSLKINSLQPEDFGTYYCQHHYGIPFTFGSGTKLELKR here.
Response given: 9.85

Challenge: Supply recorded pEC50 for chMAb1 (antibody, human IgG1, kappa, V domains shown, Chimeric, human IgG1 / Ckappa) VH: EVMLVESGGGLVKPGGSLKLSCAASGFTFSSYAMSWVRQTPEKRLEWVATISSGGSYIYYLDSVKGRFTISRDNAKNTLYLQMSSLRSEDTAMYYCARPAYYGNPAMDYWGQGTSVTVSS VL: DILMTQSQKFMSTSVGDRVSVTCKASQNVGTNVAWYQQKPGQSPKPLIYSASYRYSGVPDRFTGSGSGTDFTLTISNVQSEDLAEYFCQQYNSYPLYTFGGGTKLEIKR here.
Response given: 9.29

Challenge: Supply recorded pEC50 for chMAb5 (antibody, human IgG1, kappa, V domains shown, Chimeric, human IgG1 / Ckappa) VH: ELQLVESGGVLVKPGGSLKLSCAASGFAFSSYDMSWVRQTPEKRLEWVTYINSGGGITYYPDTVKGRFTISRDNARNTLYLQMSSLKSEDTAIYYCTAHYFGSSGPFAYWGQGTLVTVSA VL: DIQMTQSPASLSASVGETVTITCRASENIYSYLAWYQQKQGKSPQLLVYNAKTLTEGVPSRFSGSGSGTQFSLKINSLQPEDFGSYYCQHHYGTPFTFGSGTKLEIKR here.
Response given: 9.74

Origin of measurements: patent US20220340682A1
